Catalogue of IC50 readings, one per entry.
Tested on: A549 (human lung cancer)
Assay: MTT solid tumor cell growth inhibition, 72 h
Assay type: cell-based
Details: Homo sapiens, A549, 72 h; read-out: IC50
Procedure: […] Obtaining 4000 well-growing human solid tumor cells and inoculating them into wells of a 96-well cell culture plate. […] Then the viable cell concentration is determined by the MTT method and the cell viability (%) after drug treatment is calculated. […]
Readout name: IC50 (µg/mL)

• COC1=C[C@]23CCCN2CCc2cc4c(cc2[C@@H]3[C@@H]1OC(=O)[C@@](O)(CCCC(C)(C)O)CC(=O)N1CCC(N(C)C)CC1)OCO4 = 0.7
• COCCCNC(=O)C[C@](O)(CCCC(C)(C)O)C(=O)O[C@@H]1C(OC)=C[C@]23CCCN2CCc2cc4c(cc2[C@H]13)OCO4 = 16
• COC1=C[C@]23CCCN2CCc2cc4c(cc2[C@@H]3[C@@H]1OC(=O)[C@@](O)(CCCC(C)(C)O)CC(=O)N1CCN(c2ccc(F)cc2)CC1)OCO4 = 0.84
• COC1=C[C@]23CCCN2CCc2cc4c(cc2[C@@H]3[C@@H]1OC(=O)[C@@](O)(CCCC(C)(C)O)CC(=O)N1CCC(C#N)CC1)OCO4 = 5.41
• COC1=C[C@]23CCCN2CCc2cc4c(cc2[C@@H]3[C@@H]1OC(=O)[C@@](O)(CCCC(C)(C)O)CC(=O)NCc1cccs1)OCO4 = 11.2
• COC1=C[C@]23CCCN2CCc2cc4c(cc2[C@@H]3[C@@H]1OC(=O)[C@@](O)(CCCC(C)(C)O)CC(=O)N1CC=CC1)OCO4 = 4.09
• COC1=C[C@]23CCCN2CCc2cc4c(cc2[C@@H]3[C@@H]1OC(=O)[C@@](O)(CCCC(C)(C)O)CC(=O)N1CCCCC1C)OCO4 (some centres unmarked) = 1.96
• COC1=C[C@]23CCCN2CCc2cc4c(cc2[C@@H]3[C@@H]1OC(=O)[C@@](O)(CCCC(C)(C)O)CC(=O)N1CCN(C)CC1)OCO4 = 10.2
• COC1=C[C@]23CCCN2CCc2cc4c(cc2[C@@H]3[C@@H]1OC(=O)[C@@](O)(CCCC(C)(C)O)CC(=O)N1CCCC(C)C1)OCO4 (some centres unmarked) = 5.72
• COC1=C[C@]23CCCN2CCc2cc4c(cc2[C@@H]3[C@@H]1OC(=O)[C@@](O)(CCCC(C)(C)O)CC(=O)Nc1nccs1)OCO4 = 16
• COC1=C[C@]23CCCN2CCc2cc4c(cc2[C@@H]3[C@@H]1OC(=O)[C@@](O)(CCCC(C)(C)O)CC(=O)N1CCSCC1)OCO4 = 9.79
• COC1=C[C@]23CCCN2CCc2cc4c(cc2[C@@H]3[C@@H]1OC(=O)[C@@](O)(CCCC(C)(C)O)CC(=O)N1CCN(c2ccccn2)CC1)OCO4 = 1.76

====

Catalogue of IC90 readings, one per entry.
Tested on: RKO (human colon adenocarcinoma cell)
Test: MTT solid tumor cell growth inhibition, 72 h
Assay type: cell-based
Settings: Homo sapiens, read-out: IC90
Protocol: […] Obtaining 4000 well-growing human solid tumor cells and inoculating them into wells of a 96-well cell culture plate. […] Then the viable cell concentration is determined by the MTT method and the cell viability (%) after drug treatment is calculated. […]
Readout name: IC90 (µg/mL)

- COC1=C[C@]23CCCN2CCc2cc4c(cc2[C@@H]3[C@@H]1OC(=O)[C@@](O)(CCCC(C)(C)O)CC(=O)NCc1cccs1)OCO4: 6.97
- COC1=C[C@]23CCCN2CCc2cc4c(cc2[C@@H]3[C@@H]1OC(=O)[C@@](O)(CCCC(C)(C)O)CC(=O)NCc1ccc(C)o1)OCO4: 6.97
- COC(=O)C[C@](O)(CCCC(C)(C)O)C(=O)O[C@@H]1C(OC)=C[C@]23CCCN2CCc2cc4c(cc2[C@H]13)OCO4 [HHT, reference compound]: 0.009
- COC1=C[C@]23CCCN2CCc2cc4c(cc2[C@@H]3[C@@H]1OC(=O)[C@@](O)(CCCC(C)(C)O)CC(=O)N1CCN(C(C)C)CC1)OCO4: 1.25
- COC1=C[C@]23CCCN2CCc2cc4c(cc2[C@@H]3[C@@H]1OC(=O)[C@@](O)(CCCC(C)(C)O)CC(=O)N1CCN(C)CC1)OCO4: 5.72

====

system: RKO (human colon adenocarcinoma cell); assay: MTT solid tumor cell growth inhibition, 72 h; format: cell-based; conditions: Homo sapiens, read-out: IC50
Readout name: IC50 (µg/mL)

* COC1=C[C@]23CCCN2CCc2cc4c(cc2[C@@H]3[C@@H]1OC(=O)[C@@](O)(CCCC(C)(C)O)CC(=O)N1CCCC(O)C1)OCO4 (stereo partly drawn) | 15.3
* COC1=C[C@]23CCCN2CCc2cc4c(cc2[C@@H]3[C@@H]1OC(=O)[C@@](O)(CCCC(C)(C)O)CC(=O)N1CCN(CCO)CC1)OCO4 | 8.38
* COC1=C[C@]23CCCN2CCc2cc4c(cc2[C@@H]3[C@@H]1OC(=O)[C@@](O)(CCCC(C)(C)O)CC(=O)NC1CCCCC1)OCO4 | 0.029
* COC(=O)C[C@](O)(CCCC(C)(C)O)C(=O)O[C@@H]1C(OC)=C[C@]23CCCN2CCc2cc4c(cc2[C@H]13)OCO4 [HHT, reference compound] | 0.003
* COC1=C[C@]23CCCN2CCc2cc4c(cc2[C@@H]3[C@@H]1OC(=O)[C@@](O)(CCCC(C)(C)O)CC(=O)NCc1ccc(C)o1)OCO4 | 2.75
* COC1=C[C@]23CCCN2CCc2cc4c(cc2[C@@H]3[C@@H]1OC(=O)[C@@](O)(CCCC(C)(C)O)CC(=O)N1CCN(c2ccccn2)CC1)OCO4 | 0.16
* COC1=C[C@]23CCCN2CCc2cc4c(cc2[C@@H]3[C@@H]1OC(=O)[C@@](O)(CCCC(C)(C)O)CC(=O)N1CCC(N(C)C)CC1)OCO4 | 0.053
* COC1=C[C@]23CCCN2CCc2cc4c(cc2[C@@H]3[C@@H]1OC(=O)[C@@](O)(CCCC(C)(C)O)CC(=O)N1CCC(O)CC1)OCO4 | 8.51
* COC1=C[C@]23CCCN2CCc2cc4c(cc2[C@@H]3[C@@H]1OC(=O)[C@@](O)(CCCC(C)(C)O)CC(=O)N1CCOCC1)OCO4 | 4
* COC1=C[C@]23CCCN2CCc2cc4c(cc2[C@@H]3[C@@H]1OC(=O)[C@@](O)(CCCC(C)(C)O)CC(=O)Nc1nccs1)OCO4 | 4.44
* COC1=C[C@]23CCCN2CCc2cc4c(cc2[C@@H]3[C@@H]1OC(=O)[C@@](O)(CCCC(C)(C)O)CC(=O)N1CCN(C)CC1)OCO4 | 1.46
* COC1=C[C@]23CCCN2CCc2cc4c(cc2[C@@H]3[C@@H]1OC(=O)[C@@](O)(CCCC(C)(C)O)CC(=O)N1CC=CC1)OCO4 | 0.34

====

Catalogue of IC50 readings, one per entry.
tested on: NB4 (acute promyelocytic leukemia, AML); assay: MTT leukemia cell growth inhibition, 72 h; type: cell-based, human; details: Homo sapiens; NB4, 72 h; read-out: IC50
Readout name: IC50

- COC1=C[C@]23CCCN2CCc2cc4c(cc2[C@@H]3[C@@H]1OC(=O)[C@@](O)(CCCC(C)(C)O)CC(=O)N1CCC(O)CC1)OCO4: 8 µg/mL
- COC1=C[C@]23CCCN2CCc2cc4c(cc2[C@@H]3[C@@H]1OC(=O)[C@@](O)(CCCC(C)(C)O)CC(=O)NC1CCCCC1)OCO4: 0.06 µg/mL
- COC1=C[C@]23CCCN2CCc2cc4c(cc2[C@@H]3[C@@H]1OC(=O)[C@@](O)(CCCC(C)(C)O)CC(=O)N1CC=CC1)OCO4: 0.38 µg/mL
- COC1=C[C@]23CCCN2CCc2cc4c(cc2[C@@H]3[C@@H]1OC(=O)[C@@](O)(CCCC(C)(C)O)CC(=O)N1CCN(CCO)CC1)OCO4: 7.46 µg/mL
- COC1=C[C@]23CCCN2CCc2cc4c(cc2[C@@H]3[C@@H]1OC(=O)[C@@](O)(CCCC(C)(C)O)CC(=O)NCc1ccc(C)o1)OCO4: 0.09 µg/mL
- COCCCNC(=O)C[C@](O)(CCCC(C)(C)O)C(=O)O[C@@H]1C(OC)=C[C@]23CCCN2CCc2cc4c(cc2[C@H]13)OCO4: 2.59 µg/mL
- COC1=C[C@]23CCCN2CCc2cc4c(cc2[C@@H]3[C@@H]1OC(=O)[C@@](O)(CCCC(C)(C)O)CC(=O)N1CCN(C)CC1)OCO4: 2.97 µg/mL
- COC1=C[C@]23CCCN2CCc2cc4c(cc2[C@@H]3[C@@H]1OC(=O)[C@@](O)(CCCC(C)(C)O)CC(=O)N1CCSCC1)OCO4: 1.29 µg/mL
